Source of measurements: ChEMBL document CHEMBL1268866

- test-protocol: in vivo
- cond: dog
Provide the reported clearance of each item.

Fill in reported clearance for this entry: CO[C@@H]1C[C@H](C(=O)Nc2ccc(-n3ccccc3=O)cc2F)N(C(=O)Nc2ccc(Cl)cc2)C1 [ERIBAXABAN] 2.5 mL/min/kg

Fill in reported clearance for this entry: CN(C)Cc1nccn1-c1ccc(NC(=O)c2cc(C(F)(F)F)nn2-c2ccc3onc(N)c3c2)cc1 41.7 mL/min/kg

Fill in reported clearance for this entry: COc1ccc(-n2nc(C(N)=O)c3c2C(=O)N(c2ccc(N4CCCCC4=O)cc2)CC3)cc1 [APIXABAN] 0.333 mL/min/kg

Fill in reported clearance for this entry: O=C(NC[C@H]1CN(c2ccc(N3CCOCC3=O)cc2)C(=O)O1)c1ccc(Cl)s1 [RIVAROXABAN] 5 mL/min/kg

###

- test-protocol: Half life in po dosed human
- Assay type: ADME, organism-based
- cond: in vivo
parameter: half-life
Don't forget the unit after the value.

Fill in reported half-life for this entry: COc1ccc(-n2nc(C(N)=O)c3c2C(=O)N(c2ccc(N4CCCCC4=O)cc2)CC3)cc1 480 min

###

- test-protocol: in vivo
- cond: dog, po
Could you label it label 1 if measured bioavailability is 60% or higher, and label 0 otherwise?

Form field: bioavailability at least 60%? Entry: CN1CCC(N2CCN(C(=O)[C@H](NC(=O)c3ccc4cc[nH]c4c3)c3ccccc3)CC2)CC1 label 0

Form field: bioavailability at least 60%? Entry: CO[C@@H]1C[C@H](C(=O)Nc2ccc(-n3ccccc3=O)cc2F)N(C(=O)Nc2ccc(Cl)cc2)C1 label 0

Form field: bioavailability at least 60%? Entry: NCc1ccccc1-n1nc(C(F)(F)F)cc1C(=O)Nc1ccc(-c2ccccc2S(N)(=O)=O)cc1F label 1

Form field: bioavailability at least 60%? Entry: Nc1nccc2ccc(CN3CC[C@H](NS(=O)(=O)c4cc5ncccc5s4)C3=O)cc12 label 0

Form field: bioavailability at least 60%? Entry: O=C1CN(S(=O)(=O)/C=C/c2ccc(Cl)s2)CCN1Cc1cc2c[nH]ccc-2n1 label 1

Form field: bioavailability at least 60%? Entry: O=C1CN(S(=O)(=O)c2cc3ccc(Cl)cc3s2)CCN1Cc1cc2c[nH]ccc-2n1 label 0

Form field: bioavailability at least 60%? Entry: CN(C)Cc1nccn1-c1ccc(NC(=O)c2cc(C(F)(F)F)nn2-c2ccc3onc(N)c3c2)cc1 label 0

###

- Species on record: Canis familiaris
- test-protocol: Plasma concentration in dog
- Assay type: ADME, organism-based, Canis lupus familiaris
- cond: in vivo
parameter: concentration (nM)
Provide the reading as a plain figure in nM.

Fill in reported concentration for this entry: Nc1nccc2ccc(CN3CC[C@H](NS(=O)(=O)c4cc5ncccc5s4)C3=O)cc12 2700

###

- test-protocol: Volume of distribution in chimpanzee
- Assay type: ADME, organism-based, Pan troglodytes
- cond: in vivo
parameter: Vd (L/kg)
Provide the reading as a plain figure in L/kg.

Fill in reported Vd for this entry: COc1ccc(-n2nc(C(N)=O)c3c2C(=O)N(c2ccc(N4CCCCC4=O)cc2)CC3)cc1 [APIXABAN] 0.17

###

- test-protocol: Drug excretion in rat urine
- Assay type: ADME
- cond: read-out: Activity
parameter: dose excreted (%)
Provide the reading as a plain figure in %.

Fill in reported dose excreted for this entry: O=C(NC[C@H]1CN(c2ccc(N3CCOCC3=O)cc2)C(=O)O1)c1ccc(Cl)s1 25

###

- Species on record: Rattus norvegicus
- test-protocol: Clearance in rat
- Assay type: ADME, organism-based
- cond: in vivo
parameter: clearance (mL/min/kg)
Provide the reading as a plain figure in mL/min/kg.

Fill in reported clearance for this entry: COc1ccc(-n2nc(C(N)=O)c3c2C(=O)N(c2ccc(N4CCCCC4=O)cc2)CC3)cc1 4.33

###

Provide the reported Vd of each item.
- test-protocol: Volume of distribution at steady state in rat
- Assay type: ADME, organism-based
- cond: in vivo, read-out: Vdss

Fill in reported Vd for this entry: CN(C)Cc1nccn1-c1ccc(N2CC[C@H](NS(=O)(=O)/C=C/c3ccc(Cl)s3)C2=O)c(F)c1 0.6 L/kg

Fill in reported Vd for this entry: COc1ccc(-n2nc(C(N)=O)c3c2C(=O)N(c2ccc(N4CCCCC4=O)cc2)CC3)cc1 [APIXABAN] 0.31 L/kg

Fill in reported Vd for this entry: O=C(NC[C@H]1CN(c2ccc(N3CCOCC3=O)cc2)C(=O)O1)c1ccc(Cl)s1 [RIVAROXABAN] 0.3 L/kg

Fill in reported Vd for this entry: CN(C)Cc1ccc(C(=O)Nc2ccc(Cl)cc2C(=O)Nc2ccc(Cl)cn2)cc1 33 L/kg

###

- test-protocol: Drug excretion in human urine
- Format: ADME, tissue-based
- cond: read-out: Activity
parameter: dose excreted (%)
Provide the reading as a plain figure in %.

Fill in reported dose excreted for this entry: COc1ccc(-n2nc(C(N)=O)c3c2C(=O)N(c2ccc(N4CCCCC4=O)cc2)CC3)cc1 25

###

- test-protocol: in vivo
- cond: dog, po
Provide the reported bioavailability of each item.
Provide the reading as a plain figure in %.

Fill in reported bioavailability for this entry: COC[C@@H](NC(=O)c1ccc(Cl)s1)C(=O)Nc1ccc(N2CCOCC2=O)c(C)c1 60

Fill in reported bioavailability for this entry: O=C(NC[C@H]1CN(c2ccc(N3CCOCC3=O)cc2)C(=O)O1)c1ccc(Cl)s1 60
